Assay: Example 5: degradation over time of black currant anthocyanosides at 37° C., pH 7.0, with/without GSH (HPLC)
Format: physicochemical
Conditions: Blank sample, pH 7.0, 37° C., 2:45 h
readout kind: Peak Area

[
  {
    "compound": "OC[C@H]1O[C@@H](Oc2cc3c(O)cc(O)cc3[o+]c2-c2cc(O)c(O)c(O)c2)[C@H](O)[C@@H](O)[C@@H]1O [Dp-3O-Glc, Delphinidin 3-o-glucoside]",
    "Peak Area": 362.7
  },
  {
    "compound": "C[C@@H]1O[C@@H](OC[C@H]2O[C@@H](Oc3cc4c(O)cc(O)cc4[o+]c3-c3ccc(O)c(O)c3)[C@H](O)[C@@H](O)[C@@H]2O)[C@H](O)[C@H](O)[C@H]1O [Cn-3-O-Rut, Cyanidin-3-O-rutinoside]",
    "Peak Area": 1694.9
  }
]

a = C[C@@H]1O[C@@H](OC[C@H]2O[C@@H](Oc3cc4c(O)cc(O)cc4[o+]c3-c3cc(O)c(O)c(O)c3)[C@H](O)[C@@H](O)[C@@H]2O)[C@H](O)[C@H](O)[C@H]1O [Dp-3-O-Rut, Delphinidin-3-O-rutinoside]
b = OC[C@H]1O[C@@H](Oc2cc3c(O)cc(O)cc3[o+]c2-c2ccc(O)c(O)c2)[C@H](O)[C@@H](O)[C@@H]1O [Cn-3O-Glc, Cyanidin 3-o-glucoside]
Query: When a and b are compared, which has the higher number for Peak Area? Please indicate the selected item by its label.
Response: a

* * *

Assay: Example 5: degradation over time of black currant anthocyanosides at 37° C., pH 7.0, with/without GSH (HPLC)
Type: physicochemical
Details: GSH protected sample (20 mg), pH 7.0, 37° C., 2:15 h
readout kind: Peak Area

[
  {
    "compound": "C[C@@H]1O[C@@H](OC[C@H]2O[C@@H](Oc3cc4c(O)cc(O)cc4[o+]c3-c3ccc(O)c(O)c3)[C@H](O)[C@@H](O)[C@@H]2O)[C@H](O)[C@H](O)[C@H]1O [Cn-3-O-Rut, Cyanidin-3-O-rutinoside]",
    "Peak Area": 2579.6
  }
]

1 = OC[C@H]1O[C@@H](Oc2cc3c(O)cc(O)cc3[o+]c2-c2ccc(O)c(O)c2)[C@H](O)[C@@H](O)[C@@H]1O [Cn-3O-Glc, Cyanidin 3-o-glucoside]
2 = C[C@@H]1O[C@@H](OC[C@H]2O[C@@H](Oc3cc4c(O)cc(O)cc4[o+]c3-c3cc(O)c(O)c(O)c3)[C@H](O)[C@@H](O)[C@@H]2O)[C@H](O)[C@H](O)[C@H]1O [Dp-3-O-Rut, Delphinidin-3-O-rutinoside]
3 = OC[C@H]1O[C@@H](Oc2cc3c(O)cc(O)cc3[o+]c2-c2cc(O)c(O)c(O)c2)[C@H](O)[C@@H](O)[C@@H]1O [Dp-3O-Glc, Delphinidin 3-o-glucoside]
Query: Exam item: list the entries in increasing order of Peak Area. Output the labels ranked as instructed.
Response: 1, 3, 2
(1: 356.5, 3: 981.9, 2: 3544.9)

* * *

Assay: Example 5: degradation over time of black currant anthocyanosides at 37° C., pH 7.0, with/without GSH (HPLC)
Type: physicochemical
Settings: Blank sample, pH 7.0, 37° C., 2:30 h
readout kind: Peak Area

[
  {
    "molecule": "C[C@@H]1O[C@@H](OC[C@H]2O[C@@H](Oc3cc4c(O)cc(O)cc4[o+]c3-c3ccc(O)c(O)c3)[C@H](O)[C@@H](O)[C@@H]2O)[C@H](O)[C@H](O)[C@H]1O [Cn-3-O-Rut, Cyanidin-3-O-rutinoside]",
    "Peak Area": 1790.9
  }
]

a = OC[C@H]1O[C@@H](Oc2cc3c(O)cc(O)cc3[o+]c2-c2cc(O)c(O)c(O)c2)[C@H](O)[C@@H](O)[C@@H]1O [Dp-3O-Glc, Delphinidin 3-o-glucoside]
b = OC[C@H]1O[C@@H](Oc2cc3c(O)cc(O)cc3[o+]c2-c2ccc(O)c(O)c2)[C@H](O)[C@@H](O)[C@@H]1O [Cn-3O-Glc, Cyanidin 3-o-glucoside]
c = C[C@@H]1O[C@@H](OC[C@H]2O[C@@H](Oc3cc4c(O)cc(O)cc4[o+]c3-c3cc(O)c(O)c(O)c3)[C@H](O)[C@@H](O)[C@@H]2O)[C@H](O)[C@H](O)[C@H]1O [Dp-3-O-Rut, Delphinidin-3-O-rutinoside]
Query: rank_up(items): orders items by reported Peak Area in ascending numerical order. Give the labels in the order requested.
Response: b, a, c

* * *

Assay: Example 5: degradation over time of black currant anthocyanosides at 37° C., pH 7.0, with/without GSH (HPLC)
Type: physicochemical
Conditions: GSH protected sample (20 mg), pH 7.0, 37° C., 2:00 h
readout kind: Peak Area

Examples with their reported Peak Area follow.
[
  {
    "compound": "OC[C@H]1O[C@@H](Oc2cc3c(O)cc(O)cc3[o+]c2-c2ccc(O)c(O)c2)[C@H](O)[C@@H](O)[C@@H]1O [Cn-3O-Glc, Cyanidin 3-o-glucoside]",
    "meas value": 387.6
  },
  {
    "compound": "C[C@@H]1O[C@@H](OC[C@H]2O[C@@H](Oc3cc4c(O)cc(O)cc4[o+]c3-c3ccc(O)c(O)c3)[C@H](O)[C@@H](O)[C@@H]2O)[C@H](O)[C@H](O)[C@H]1O [Cn-3-O-Rut, Cyanidin-3-O-rutinoside]",
    "meas value": 2777.8
  }
]

P = C[C@@H]1O[C@@H](OC[C@H]2O[C@@H](Oc3cc4c(O)cc(O)cc4[o+]c3-c3cc(O)c(O)c(O)c3)[C@H](O)[C@@H](O)[C@@H]2O)[C@H](O)[C@H](O)[C@H]1O [Dp-3-O-Rut, Delphinidin-3-O-rutinoside]
Q = OC[C@H]1O[C@@H](Oc2cc3c(O)cc(O)cc3[o+]c2-c2cc(O)c(O)c(O)c2)[C@H](O)[C@@H](O)[C@@H]1O [Dp-3O-Glc, Delphinidin 3-o-glucoside]
Query: Parameter metric = Peak Area. Return the lower-valued option from P and Q . Identify your selection by its label.
Response: Q

* * *

Assay: Example 3: stability of black currant extract anthocyanosides, 4 hours at 37° C., pH 7.0, with/without DHLA, GSH or L-cysteine (HPLC)
Type: physicochemical
Settings: pH 7.0, 37° C., 4 hours
Description: Sample a) 60 mg black currant extract [35% anthocyanosides] (0.037 mmol anthocyanosides expressed as cyanidin-3-O-rutinoside) were added to a 100 ml flask and filled to volume with sodium phosphate buffer (5% [w/w], pH=7.0) and stirred until dissolution was complete. A 1 ml sample was taken immediately, acidified with formic acid to pH=1.0 and analyzed by HPLC for the content of anthocyanosides (Fresh Sample). The remaining solution was kept for 4 hours at 37° C. (water bath) with stirring. […]
readout kind: % left, DHLA 20 mg (%)

[
  {
    "compound": "OC[C@H]1O[C@@H](Oc2cc3c(O)cc(O)cc3[o+]c2-c2cc(O)c(O)c(O)c2)[C@H](O)[C@@H](O)[C@@H]1O [Dp-3O-Glc, Delphinidin 3-o-glucoside]",
    "% left, DHLA 20 mg (%)": 52.0
  },
  {
    "compound": "OC[C@H]1O[C@@H](Oc2cc3c(O)cc(O)cc3[o+]c2-c2ccc(O)c(O)c2)[C@H](O)[C@@H](O)[C@@H]1O [Cn-3O-Glc, Cyanidin 3-o-glucoside]",
    "% left, DHLA 20 mg (%)": 51.7
  },
  {
    "compound": "C[C@@H]1O[C@@H](OC[C@H]2O[C@@H](Oc3cc4c(O)cc(O)cc4[o+]c3-c3ccc(O)c(O)c3)[C@H](O)[C@@H](O)[C@@H]2O)[C@H](O)[C@H](O)[C@H]1O [Cn-3-O-Rut, Cyanidin-3-O-rutinoside]",
    "% left, DHLA 20 mg (%)": 51.1
  },
  {
    "compound": "C[C@@H]1O[C@@H](OC[C@H]2O[C@@H](Oc3cc4c(O)cc(O)cc4[o+]c3-c3cc(O)c(O)c(O)c3)[C@H](O)[C@@H](O)[C@@H]2O)[C@H](O)[C@H](O)[C@H]1O [Dp-3-O-Rut, Delphinidin-3-O-rutinoside]",
    "% left, DHLA 20 mg (%)": 51.7
  }
]

* * *

Experiment: Example 1: stability of bilberry extract anthocyanosides, 4 hours at 37° C., pH 7.0, with/without DHLA or GSH (HPLC)
Type: physicochemical
Settings: unprotected, pH 7.0, 37° C., 4 hours
readout kind: Peak Area, Blank (4 hours)

Observe how each entry below is paired with its result.
[
  {
    "compound": "OC[C@H]1O[C@@H](Oc2cc3c(O)cc(O)cc3[o+]c2-c2ccc(O)c(O)c2)[C@H](O)[C@@H](O)[C@H]1O [Cn-3O-Gal, Cyanidin-3-O-galactoside]",
    "meas value": 191.1
  },
  {
    "compound": "OC[C@H]1O[C@@H](Oc2cc3c(O)cc(O)cc3[o+]c2-c2ccc(O)c(O)c2)[C@H](O)[C@@H](O)[C@@H]1O [Cn-3O-Glc, Cyanidin 3-o-glucoside]",
    "meas value": 410.3
  },
  {
    "compound": "COc1cc(-c2[o+]c3cc(O)cc(O)c3cc2O[C@@H]2OC[C@H](O)[C@H](O)[C@H]2O)cc(OC)c1O [Mv-3O-Ara, Malvidin 3-o-arabinoside]",
    "meas value": 36.8
  }
]

1 = Oc1cc(O)c2cc(O[C@@H]3OC[C@H](O)[C@H](O)[C@H]3O)c(-c3ccc(O)c(O)c3)[o+]c2c1 [Cn-3O-Ara, Cyanidin 3-o-arabinoside]
2 = COc1cc(-c2[o+]c3cc(O)cc(O)c3cc2O[C@@H]2O[C@H](CO)[C@@H](O)[C@H](O)[C@H]2O)ccc1O [Pe-3O-Glc, Peonidin 3-o-glucoside]
Query: I would appreciate it if you could say which entry, 1 or 2 , has the lower Peak Area, Blank (4 hours) value. Answer with the label corresponding to your selection.
Response: 2

From: patent US8623429B2
